# cytotoxicity at 70.5 h per record follows
assayComment: Human HepG2 cell viability assay in 384 well format
Format: toxicity, cell-based
Design: dose 125 nL, time 70.5 hour; concentration not given beside the values
testParameters: HepG2 cells, read-out: Inhibition
Report the figure along with its unit, number first.

These recorded examples may help you get a feel for the data.
molecule=N#Cc1nc(COc2ccc3c(c2)OCO3)oc1NC1CCCCC1 endpointvalue=-28.5%
molecule=CC(C)CN1CCS(=O)(=O)[C@@H]2CCN(S(=O)(=O)CC(C)C)CC[C@@H]21 endpointvalue=-3.69%
molecule="COc1ccc(C(=O)C2CCCN(c3cc(C#N)ccn3)C2)cc1OC (stereo unspecified)" endpointvalue=-5.09%
molecule=Cc1cc(CN2CCN(c3nn4cc(C)nc4s3)CC2)on1 endpointvalue=-7.1%
molecule=O=C(c1c[nH]c2ncccc12)N1CCC(COc2ccccc2)CC1 endpointvalue=10.4%
molecule="Cc1ccc(O)c(C(=O)N2CCCC(NC(=O)C(C)C)C2)c1 (stereo unspecified)" endpointvalue=-6.92%
molecule="COC(=O)C(C)NCc1ccc2[nH]c(C)c(C)c2c1 (stereo unspecified)" endpointvalue=-0.287%
molecule="CCNc1ncc(C(=O)NC2COC3(CCCC3)C2)cn1 (stereo unspecified)" endpointvalue=-3.75%
molecule="CCn1nnc2c1C(COC)CN(Cc1ccco1)C2 (stereo unspecified)" endpointvalue=39.7%
molecule="O=C(NCCc1ccccn1)NC1CCN(c2ccccc2)C1=O (stereo unspecified)" endpointvalue=1.75%

# evaluate next
Q) # input molecule: Cc1nn(C)c(Cl)c1C(=O)NCc1cccnc1N1CCOCC1 ; wanted: its cytotoxicity at 70.5 h
A) -11.8%

====

assayComment: Human HepG2 cell viability assay in 384 well format
Assay type: toxicity, cell-based
Set-up: dose 125 nL, time 70.5 hour; concentration not given beside the values
testParameters: HepG2 cells, read-out: Inhibition
# cytotoxicity at 70.5 h per record follows
Numeric answer only, unit % assumed.

These recorded examples may help you get a feel for the data.
compound=COc1nccnc1N1C[C@@H]2CC[C@H](C1)N(CC=C(C)C)C2=O assayreadout="cytotoxicity at 70.5 h" endpointvalue=-20.8
compound=Cc1noc(C)c1CN(C)Cc1csc(-c2ccccc2F)n1 assayreadout="cytotoxicity at 70.5 h" endpointvalue=-3.72
compound=c1ccc(CN2CCC3(CC2)CCN(Cc2cccnc2)C3)nc1 assayreadout="cytotoxicity at 70.5 h" endpointvalue=-9.45
compound="Cc1nc(C)n(C2CCCN(C(=O)c3ccc4nccn4c3)C2)n1 (configuration not stated)" assayreadout="cytotoxicity at 70.5 h" endpointvalue=22.7
compound="Cc1cc(C)c(C(=O)N2CCC3(CCCN(CC(C)(C)C)C3)C2)[nH]1 (configuration not stated)" assayreadout="cytotoxicity at 70.5 h" endpointvalue=15.2

Q) # input compound: Cc1cc(N2CCC(C(=O)O)(n3ccc(C(C)(C)C)n3)CC2)nc(N)n1 ; wanted: its cytotoxicity at 70.5 h
A) 0.151

Q) Repeat with COC(=O)CN1N=C(C(=O)N2CCCC2)S(=O)(=O)c2ccccc21
A) -4.54

Q) Repeat with COc1c(C2CCCN2C(=O)c2nccnc2N)c(C)nn1C (configuration not stated)
A) -13

Q) Repeat with Cc1ccccc1OC1CCN(C(=O)c2c[nH]c(=O)[nH]c2=O)CC1
A) -0.618

Q) Repeat with CC(c1nc(C(C)(C)C)no1)N1CCN(CC(=O)N2CCOCC2)CC1 (configuration not stated)
A) -16.5
